assayTarget: TNKS1 (Homo sapiens, UniProt O95271)
Sequence (O95271 1-1327): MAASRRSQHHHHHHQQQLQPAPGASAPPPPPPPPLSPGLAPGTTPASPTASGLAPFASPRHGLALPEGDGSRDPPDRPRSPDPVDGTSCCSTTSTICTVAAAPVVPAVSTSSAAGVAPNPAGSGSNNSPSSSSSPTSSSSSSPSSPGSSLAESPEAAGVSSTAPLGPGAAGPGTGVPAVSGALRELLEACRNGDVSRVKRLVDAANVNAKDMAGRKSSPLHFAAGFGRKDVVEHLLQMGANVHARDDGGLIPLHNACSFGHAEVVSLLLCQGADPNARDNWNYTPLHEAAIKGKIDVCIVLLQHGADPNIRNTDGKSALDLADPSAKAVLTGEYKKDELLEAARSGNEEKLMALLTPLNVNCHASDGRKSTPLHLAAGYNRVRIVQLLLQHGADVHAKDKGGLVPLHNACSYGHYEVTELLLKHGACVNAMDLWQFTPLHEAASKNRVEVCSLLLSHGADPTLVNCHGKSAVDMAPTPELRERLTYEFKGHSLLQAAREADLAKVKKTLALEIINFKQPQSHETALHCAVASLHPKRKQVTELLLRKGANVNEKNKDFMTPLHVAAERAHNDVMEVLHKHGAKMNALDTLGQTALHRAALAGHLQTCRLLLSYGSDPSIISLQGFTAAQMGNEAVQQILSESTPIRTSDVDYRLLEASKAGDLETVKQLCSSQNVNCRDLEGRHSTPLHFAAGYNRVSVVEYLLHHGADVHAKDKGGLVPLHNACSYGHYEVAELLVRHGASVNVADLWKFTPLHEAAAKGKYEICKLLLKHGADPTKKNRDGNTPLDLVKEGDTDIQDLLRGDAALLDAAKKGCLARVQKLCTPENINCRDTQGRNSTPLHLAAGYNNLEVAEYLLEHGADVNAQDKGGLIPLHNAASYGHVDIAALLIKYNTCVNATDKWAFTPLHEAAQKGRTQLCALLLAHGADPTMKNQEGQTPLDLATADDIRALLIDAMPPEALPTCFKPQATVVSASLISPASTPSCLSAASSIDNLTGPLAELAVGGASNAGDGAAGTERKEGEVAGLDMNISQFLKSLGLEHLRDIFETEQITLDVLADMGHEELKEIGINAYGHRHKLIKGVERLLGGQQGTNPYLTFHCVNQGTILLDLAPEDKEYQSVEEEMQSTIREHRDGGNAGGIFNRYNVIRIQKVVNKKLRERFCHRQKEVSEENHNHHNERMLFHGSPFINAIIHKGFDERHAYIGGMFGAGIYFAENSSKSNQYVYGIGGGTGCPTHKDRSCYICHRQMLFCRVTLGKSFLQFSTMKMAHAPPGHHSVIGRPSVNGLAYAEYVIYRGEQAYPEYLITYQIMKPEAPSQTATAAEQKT
Our labelling divides records by IC50 into ranges: low-valued: < 80 nM; mid-valued: ≥ 80 nM and < 400 nM; high-valued: ≥ 400 nM

Sample answers from the record:
>>> labelclass("O=C(N[C@H]1CC[C@@]2(CCN(c3ccc(F)cc3Cl)C2=O)CC1)c1[nH]cnc1C(=O)N1CCN(CC(F)(F)F)CC1")
"high-valued"
>>> labelclass("CNC(=O)c1nc[nH]c1C(=O)N[C@H]1CC[C@@]2(CCN(c3ccccc3Cl)C2=O)CC1")
"low-valued"

Data request: Record O=C(N[C@H]1CC[C@@]2(CCN(c3cc(F)c(F)cc3Cl)C2=O)CC1)c1cnc2cccnn12 — which class?
Data returned: low-valued

Data request: State the class of the compound shown: CN(C)C1CN(C(=O)c2nc[nH]c2C(=O)N[C@H]2CC[C@H](C(=O)Nc3ccc(F)cc3Cl)CC2)C1
Data returned: low-valued

Data request: Please let me know in which category the item Cc1cc(C(C)(C)C)n2ncc(C(=O)N[C@H]3CC[C@H](C(=O)Nc4ccc(F)cc4Cl)CC3)c2n1 belongs.
Data returned: high-valued

Data request: Could you place O=C(N[C@H]1CC[C@@]2(CCN(c3ccc(F)cc3Cl)C2=O)CC1)c1nc[nH]c1C(=O)NCC(F)(F)F in its proper category? Many thanks.
Data returned: low-valued

Data request: Form field 'band' for Cc1cc(C)n2ncc(C(=O)N[C@H]3CC[C@@]4(CCN(c5cccc(Cl)c5)C4=O)CC3)c2n1
Data returned: mid-valued

Data request: Bin this entry: CC(C)NC(=O)c1nc[nH]c1C(=O)N[C@H]1CC[C@@]2(CCN(c3cccc(Cl)c3)C2=O)CC1
Data returned: high-valued

====

Below are IC50 values recorded for UniProt Q9H2K2.
Give just the number in nM; leave the unit off.

Use the examples below as a reference point.
>>> val("Cc1ccccc1N(C)C(=O)[C@H]1CC[C@H](NC(=O)c2cnn3cccnc23)CC1 [Example 178]")
230
>>> val("CNC(=O)c1[nH]cnc1C(=O)NC1CCC(C(=O)Nc2ccc(F)cc2Cl)CC1C (racemic) [Example 39]")
100

// next item, IC50 requested
So the reported IC50 for Cc1cc(C)n2ncc(C(=O)NC34CCC(C(=O)Nc5ccc(F)cc5Cl)(CC3)CC4)c2n1 [Example 125] , on UniProt Q9H2K2, turned out to be 130

====

Structures can show the parent of a compound that is named as a salt.
The following molecules have recorded pIC50 on UniProt:Q9H2K2.
Hey, just a heads up that pIC50 is the negative log base 10 of the concentration in molar.

Worked cases, pIC50 given:
>>> val("CNC(=O)c1nc[nH]c1C(=O)N[C@H]1CC[C@H](C(=O)Nc2c(Br)cc(F)c(F)c2F)CC1")
7.72
>>> val("O=C(NC[C@@H]1CCCO1)c1nc[nH]c1C(=O)N[C@H]1CC[C@H](C(=O)Nc2ccc(F)cc2Cl)CC1")
7.00
>>> val("COc1ccc2ncc(C(=O)N[C@H]3CC[C@H](C(=O)Nc4ccc(F)cc4Cl)CC3)n2n1")
6.77

GET /value?item= Cc1c(C(C)N(C)C)cnc2c(C(=O)N[C@H]3CC[C@H](C(=O)Nc4ccc(F)cc4Cl)CC3)cnn12 (mixture of isomers) [Example 55, formic acid salt] &field=pIC50 returns 6.31

The reported pIC50 of the molecule O=C(NC12CCC(C(=O)Nc3cnccc3Cl)(CC1)CC2)c1cnc2cccnn12 was 6.59

Reported pIC50 of O=C(N[C@H]1CC[C@H](C(=O)Nc2cc(F)c(F)cc2Cl)CC1)c1cnn2cccnc12 : 7.74

Value of measured pIC50 for the entry O=C(N[C@H]1CC[C@@]2(CCCN(c3cc(F)c(F)cc3Cl)C2=O)CC1)c1cnn2cccnc12 : 8.00

====

assayTarget: TNKS2 (Homo sapiens)
Sequence (Q9H2K2 1-1166): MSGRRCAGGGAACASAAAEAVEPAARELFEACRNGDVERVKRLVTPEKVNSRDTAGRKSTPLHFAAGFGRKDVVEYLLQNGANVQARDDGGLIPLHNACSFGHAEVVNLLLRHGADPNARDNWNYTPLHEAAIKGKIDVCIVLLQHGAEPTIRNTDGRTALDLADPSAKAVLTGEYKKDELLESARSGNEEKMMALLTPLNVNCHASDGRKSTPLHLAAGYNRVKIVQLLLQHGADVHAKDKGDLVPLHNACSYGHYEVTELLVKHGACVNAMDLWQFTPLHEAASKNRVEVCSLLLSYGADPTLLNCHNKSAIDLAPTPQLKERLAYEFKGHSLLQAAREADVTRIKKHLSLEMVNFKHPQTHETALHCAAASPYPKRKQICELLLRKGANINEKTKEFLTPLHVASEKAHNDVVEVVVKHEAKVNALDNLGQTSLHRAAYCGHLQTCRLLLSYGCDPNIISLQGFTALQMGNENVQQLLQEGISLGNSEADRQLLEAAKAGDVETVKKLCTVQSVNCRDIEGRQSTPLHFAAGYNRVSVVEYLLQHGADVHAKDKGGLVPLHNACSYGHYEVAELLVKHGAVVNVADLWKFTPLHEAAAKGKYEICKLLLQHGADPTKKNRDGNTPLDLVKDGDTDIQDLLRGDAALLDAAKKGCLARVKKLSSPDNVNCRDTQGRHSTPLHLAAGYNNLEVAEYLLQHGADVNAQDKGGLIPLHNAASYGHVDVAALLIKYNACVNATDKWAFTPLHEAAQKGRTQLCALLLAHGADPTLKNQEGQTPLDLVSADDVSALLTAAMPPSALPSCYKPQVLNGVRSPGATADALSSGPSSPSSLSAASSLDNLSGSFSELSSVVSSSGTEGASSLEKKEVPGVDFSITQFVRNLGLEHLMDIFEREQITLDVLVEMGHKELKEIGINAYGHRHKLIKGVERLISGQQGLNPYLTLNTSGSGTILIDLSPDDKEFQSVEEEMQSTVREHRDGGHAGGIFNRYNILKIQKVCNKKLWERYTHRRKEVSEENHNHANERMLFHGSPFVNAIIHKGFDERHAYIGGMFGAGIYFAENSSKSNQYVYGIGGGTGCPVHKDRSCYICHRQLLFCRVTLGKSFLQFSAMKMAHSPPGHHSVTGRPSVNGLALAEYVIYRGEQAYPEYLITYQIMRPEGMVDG
// reported pIC50 per item
Remember, pIC50 is on a log scale: it is -log10 of the molar concentration.

Example results:
>>> val("O=C(N[C@H]1CC[C@@]2(CCCN(c3cc(F)c(F)cc3Cl)C2=O)CC1)c1[nH]cnc1C(=O)N1CCOCC1 [Example 323]")
6.03
>>> val("O=C(N[C@H]1CC[C@@]2(CCCN(c3cc(F)c(F)cc3Cl)C2=O)CC1)c1cnc2cccnn12 [Example 314]")
7.66
>>> val("Cc1cc(N(C)C(=O)[C@H]2CC[C@H](NC(=O)c3cnn4cccnc34)CC2)c(Cl)cc1F [Example 176]")
6.89
>>> val("O=C(N[C@H]1CC[C@@]2(CCN(c3ccc(F)cc3Cl)C2=O)CC1)c1n[nH]c2cccnc12 [Example 228]")
6.38
>>> val("COCCc1cnc2c(C(=O)N[C@H]3CC[C@@]4(CCN(c5ccc(F)cc5Cl)C4=O)CC3)cnn2c1 [Example 237]")
8.05

Just so you know, measured pIC50 for CNC(=O)c1[nH]cnc1C(=O)N[C@@H]1CC[C@@H](C(=O)Nc2ccc(F)cc2Cl)C[C@@H]1F (racemic) [Example 31] came out at 6.92

Consider COCCn1cc(C(=O)N[C@H]2CC[C@@]3(CCN(c4ccc(F)cc4Cl)C3=O)CC2)c2ncccc21 [Example 345] . Its measured pIC50 is 7.36
